PROTOCOL_NOTES: Aqueous solubility in PBS buffer at pH 7.4
Type: physicochemical
READOUT_KIND: solubility (µg/mL)

{"columns": ["COMPOUND", "MEASUREMENT"],
 "data": [
  ["CC(=O)N1CCCC1(Cc1ccc(C#N)cc1)C(=O)OCc1ccccc1 (stereo not given)", 20],
  ["CC(=O)N1CCCC1(Cc1ccc(C(F)(F)F)cc1)C(=O)OCc1ccccc1 (stereo not given)", 2],
  ["CC(=O)N1CCCC1(CC1CCCCC1)C(=O)OCc1ccccc1 (stereo not given)", 3],
  ["CC(=O)N1CCCC1(Cc1ccccc1)C(=O)OCc1ccccc1 (racemic)", 2],
  ["CC(=O)N1CCCC1(Cc1ccc(F)c(C(F)(F)F)c1)C(=O)OCc1ccccc1 (stereo not given)", 0.5]
]}

----------
ASSAYED_SYSTEM: UniProt:Q63633
Sequence (Q63633 whole entry): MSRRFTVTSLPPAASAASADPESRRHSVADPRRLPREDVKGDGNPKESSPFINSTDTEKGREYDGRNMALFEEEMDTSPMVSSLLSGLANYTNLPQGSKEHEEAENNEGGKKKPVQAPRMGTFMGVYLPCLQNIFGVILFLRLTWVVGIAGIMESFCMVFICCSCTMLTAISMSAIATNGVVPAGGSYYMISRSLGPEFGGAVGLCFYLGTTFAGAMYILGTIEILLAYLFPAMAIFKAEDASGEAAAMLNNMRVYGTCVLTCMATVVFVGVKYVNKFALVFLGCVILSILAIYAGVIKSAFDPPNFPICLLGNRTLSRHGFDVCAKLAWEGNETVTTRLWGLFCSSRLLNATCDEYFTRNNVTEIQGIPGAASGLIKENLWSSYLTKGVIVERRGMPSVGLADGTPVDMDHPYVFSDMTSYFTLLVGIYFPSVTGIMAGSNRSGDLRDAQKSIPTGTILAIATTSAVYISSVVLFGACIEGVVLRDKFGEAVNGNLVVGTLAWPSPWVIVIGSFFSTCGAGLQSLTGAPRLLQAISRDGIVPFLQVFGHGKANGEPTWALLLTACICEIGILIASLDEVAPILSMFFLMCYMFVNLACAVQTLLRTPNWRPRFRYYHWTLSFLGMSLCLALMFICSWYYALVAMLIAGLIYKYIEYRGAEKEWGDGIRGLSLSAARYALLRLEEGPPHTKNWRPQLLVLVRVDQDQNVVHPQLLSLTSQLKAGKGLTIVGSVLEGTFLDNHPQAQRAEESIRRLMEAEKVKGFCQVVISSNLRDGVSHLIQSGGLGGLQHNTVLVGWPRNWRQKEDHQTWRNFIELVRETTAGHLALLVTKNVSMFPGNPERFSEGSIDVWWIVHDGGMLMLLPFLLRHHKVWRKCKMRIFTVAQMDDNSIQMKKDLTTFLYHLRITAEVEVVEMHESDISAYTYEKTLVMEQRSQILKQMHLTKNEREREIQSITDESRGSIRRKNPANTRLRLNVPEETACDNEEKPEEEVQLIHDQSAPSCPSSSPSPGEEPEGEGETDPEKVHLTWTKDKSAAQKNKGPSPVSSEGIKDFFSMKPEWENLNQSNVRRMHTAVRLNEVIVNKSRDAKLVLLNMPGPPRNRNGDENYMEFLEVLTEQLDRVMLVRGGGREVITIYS
PROTOCOL_NOTES: Antagonist activity of rat KCC2 transporter expressed in human SK-Hep cells assessed as inhibition of N-ethylmaleimide-mediated Rb+ influx after 10 mins by atomic absorption spectroscopy

{"columns": ["COMPOUND", "ASSAYED_SYSTEM", "IC50"],
 "data": [
  ["CC(=O)N1CCCC1(Cc1ccccc1)C(=O)O (centres undefined)", "UniProt:Q63633", "> 100 µM"],
  ["O=C(OCc1ccccc1)C1(Cc2ccccc2)CCCN1 (centres undefined)", "UniProt:Q63633", "> 100 µM"],
  ["CCN1CCCC1(Cc1ccccc1)C(=O)OCc1ccccc1 (centres undefined)", "UniProt:Q63633", "> 100 µM"],
  ["COC(=O)C1(Cc2ccccc2)CCCN1C(C)=O (centres undefined)", "UniProt:Q63633", "> 100 µM"],
  ["CC(=O)N1CCCC1(Cc1ccc(C)cc1)C(=O)OCc1ccccc1 (centres undefined)", "UniProt:Q63633", "0.79 µM"],
  ["CC(=O)N1CCCC1(Cc1cccc(S(C)(=O)=O)c1)C(=O)OCc1ccccc1 (centres undefined)", "UniProt:Q63633", "0.25 µM"],
  ["CC(=O)N1CCCC1(Cc1ccc(S(C)(=O)=O)cc1)C(=O)OCc1ccccc1 (single isomer, unassigned; (-))", "UniProt:Q63633", "40 µM"],
  ["CC(=O)N1CCCC1(Cc1ccccc1)C(=O)NCc1ccccc1 (centres undefined)", "UniProt:Q63633", "100 µM"],
  ["CC(=O)N1CCCC1(Cc1ccccc1)C(=O)OCc1ccncc1 (centres undefined)", "UniProt:Q63633", "> 100 µM"]
]}
